Data provenance is patent US20260139048A1.

Measured koff, listed per entry.
# subject of test: T1, His-tagged cynomolgus TIGIT (cynomolgus, UniProt A0A7N9I9V4 89-209)
# T1 construct: SPR analyte; also called cynomolgus TIGIT protein; not shown: His tag
# protocol summary: SPR (Biacore T200), antibody captured, His-tagged TIGIT analyte
API: value field is a number in s⁻¹; no unit string.

Some solved cases for reference:
huTIGIT-6-2 (antibody, human IgG1, kappa, V domains shown, Humanized IgG; also called 6VH6.M5 + 6VL1.M1) VH: QVQLVQSGAEVKKPGASVKVSCKASGYTITENTMHWVRQAPGQRLEWIGGINPNNAGTSYSQKFQGRATLTVDTSASTAYMELSSLRSEDTAVYYCTRSSYYRYDLDYWGQGTTVTVSS VL: DIQMTQSPSSLSASVGDRVTITCQASQDIKTALAWYQQKPGKAPKLLIYSASYRYTGVPSRFSGSGSGTDFTFTISSLQPEDIATYYCHQHYTTPWTFGGGTKLEIKR ... 0.0074
huTIGIT-19-3 (antibody, human IgG1, kappa, V domains shown, Humanized IgG; also called 19VH4.M10 + 19VL1.M4) VH: QVQLVQSGAEVKKPGASVKVSCKASGYTFTRYSMYWVRQAPGQGLEWIAFIDAYSGGSTYAQKFQGKATLTVDTSISTAYMELSRLRSDDTAVYYCARGGDYGWYLGVWGQGTLVTVSS VL: DIQMTQSPSSLSASVGDRVTITCRPSENIYTYLSWYQQKPGKAPKLLIYNAKSLPSGVPSRFSGSGSGTDFTLTISSLQPEDFATYYCQHHYGNPLTFGQGTKVEIKR ... 4.1e-05

Next:
Problem: Specify measured koff for TIGIT-6 chimeric antibody (antibody, human IgG1, kappa, V domains shown, also called 6VH + 6VL) VH: QVQLKQSGPELVKPGASVKISCKTSGYTITENTMHWVKQSHGKSLEWIGGINPNNGGTSYNQQFKGKATLTVDKSSSTAYMELRSLTSEDSAVYYCTRSSYYRYDLDYWGQGTTVTVSS VL: DIQMTQSHKFMSTSVGDRVSITCKASQDVKTALAWYQQKPGQSPKLLIYSASYRYTGVPDRFTGSGSGTDFTFTISSVQAEDLAVYYCHQHYTTPWTFGGGTKLEIKR .
Result: 0.0046
